Catalogue of molecules with associated MBC
# System: MRSA USA300
# Test: Antibacterial activity assay (MIC by broth microdilution, MBC by subculture)
# Format: cell-based, Staphylococcus aureus
# Measurement Context: +8 mg/L DHA
Recorded Metric: MBC (mg/L)

1) O=C(Nc1ccc(OC(F)(F)F)cc1)C(CCCl)C(=O)Nc1ccc(OC(F)(F)F)cc1	8
2) O=C(Nc1ccc(Cl)c(C(F)(F)F)c1)C1(C(=O)Nc2ccc(Cl)c(C(F)(F)F)c2)CC1 [SC5107]	0.125
3) O=C(Nc1ccc(Cl)c(C(F)(F)F)c1)C(CCCCl)C(=O)Nc1ccc(Cl)c(C(F)(F)F)c1	0.0078
4) O=C(Nc1ccc([N+](=O)[O-])c(C(F)(F)F)c1)C(CCCl)C(=O)Nc1ccc([N+](=O)[O-])c(C(F)(F)F)c1	1
5) O=C(Nc1ccc2c(c1)OC(F)(F)O2)Nc1ccc(Cl)c(C(F)(F)F)c1	0.00098
6) CCCNC(=O)C(CCCl)C(=O)Nc1ccc(Cl)c(C(F)(F)F)c1 (stereo not shown)	8
7) O=C(Nc1ccc(Cl)c(C(F)(F)F)c1)C(F)(CCCl)C(=O)Nc1ccc(Cl)c(C(F)(F)F)c1	0.125
8) O=C(Nc1cc(Cl)cc(Cl)c1)C(CCCl)C(=O)Nc1ccc(Cl)c(C(F)(F)F)c1 (stereo not shown)	2
9) C#Cc1cccc(NC(=O)C2(C(=O)Nc3cccc(C#C)c3)CC2)c1	64
10) C=CCNC(=O)C(CCCl)C(=O)NCC=C	2
11) O=C(Nc1cc(Cl)cc(Cl)c1)C(Cc1ccccc1)C(=O)Nc1cc(Cl)cc(Cl)c1	0.0156
12) C=CCC(C(=O)Nc1ccc(Cl)c(C(F)(F)F)c1)C(=O)Nc1ccc(Cl)c(C(F)(F)F)c1	0.0078
13) C=CCNC(=O)C(CCCl)C(=O)Nc1ccc(Cl)c(C(F)(F)F)c1 (stereo not shown)	16
14) O=C(Nc1cccc(C(F)(F)F)c1)C(CCCl)C(=O)Nc1cccc(C(F)(F)F)c1	16
15) O=C(Nc1ccc(Cl)c(C(F)(F)F)c1)C1(C(=O)Nc2ccc(Cl)c(C(F)(F)F)c2)CC1 [SC5020]	0.125
16) O=C(Nc1ccc(Cl)c(C(F)(F)F)c1)C(CCCl)C(=O)Nc1ccc(Cl)c(C(F)(F)F)c1	0.0078
17) O=C(Nc1cc(Cl)cc(Cl)c1)C(CCCl)C(=O)Nc1cc(Cl)cc(Cl)c1	2

---

# Tested on: VRSA SJC1200
# Test: Antibacterial activity assay (MIC, broth microdilution)
# Assay type: cell-based, Staphylococcus aureus
# Measurement Context: Staphylococcus aureus, VRSA, agent alone
Recorded Metric: MIC (µg/mL)

1) O=C(Nc1ccc(Cl)c(C(F)(F)F)c1)C(CCCl)C(=O)Nc1ccc(Cl)c(C(F)(F)F)c1	0.25
2) CC/C=C\C/C=C\C/C=C\C/C=C\C/C=C\C/C=C\CCC(=O)O	1020
3) O=C(Nc1ccc2c(c1)OC(F)(F)O2)Nc1ccc(Cl)c(C(F)(F)F)c1	0.125

---

The following molecules are listed with their measured MIC values.
# System: MRSA ATCC33592
# Test: Antibacterial activity assay (MIC, broth microdilution)
# Type: cell-based, Staphylococcus aureus
# Measurement Context: Staphylococcus aureus, agent alone
Recorded Metric: MIC (µg/mL)

1. O=C(Nc1ccc2c(c1)OC(F)(F)O2)Nc1ccc(Cl)c(C(F)(F)F)c1	0.0625
2. O=C(Nc1ccc(Cl)c(C(F)(F)F)c1)C(CCCl)C(=O)Nc1ccc(Cl)c(C(F)(F)F)c1	0.25
3. CC/C=C\C/C=C\C/C=C\C/C=C\C/C=C\C/C=C\CCC(=O)O	1020
